Data credit: ChEMBL document CHEMBL3621191

Item-by-item account of selectivity ratio
Assay: Selectivity index, ratio of CC50 for human MT4 cells to EC50 for HIV1 3B infected in human MT4 cells
Type: toxicity, cell-based
Conditions: read-out: Ratio CC50/EC50
Property Name: selectivity ratio

Chem Smiles: Cc1cc(C#N)cc(C)c1Oc1ccnc(S(=O)(=O)CC(=O)Nc2ccc(Cl)cc2Cl)n1
Limit Operator: =
Obs Value: 36.5

Chem Smiles: Cc1cc(C#N)cc(C)c1Oc1ccnc(S(=O)(=O)CC(=O)Nc2ccc(Cl)c(Cl)c2)n1
Limit Operator: =
Obs Value: 666

Chem Smiles: Cc1cc(C#N)cc(C)c1Oc1ccnc(S(=O)(=O)CC(=O)Nc2ccc(C#N)cc2F)n1
Limit Operator: >
Obs Value: 7810

Chem Smiles: Cc1cccc(NC(=O)CS(=O)(=O)c2nccc(Oc3c(C)cc(C#N)cc3C)n2)c1
Limit Operator: =
Obs Value: 75

Chem Smiles: Cc1ccc(NC(=O)CS(=O)(=O)c2nccc(Oc3c(C)cc(C#N)cc3C)n2)cc1
Limit Operator: =
Obs Value: 1060

Chem Smiles: Cc1cc(C#N)cc(C)c1Oc1ccnc(S(=O)(=O)CC(=O)Nc2ccc(C#N)cc2)n1
Limit Operator: ≥
Obs Value: 3540

Chem Smiles: Cc1cc(C#N)cc(C)c1Oc1ccnc(S(=O)(=O)CC(=O)Nc2ccccc2F)n1
Limit Operator: =
Obs Value: 176

----------
Assay: Cytotoxicity against human MT4 cells assessed as reduction in cell viability incubated for 4 days by MTT assay
Assay type: cell-based
Property Name: CC50 at 96 h (µM)

Chem Smiles: Cc1cc(C#N)cc(C)c1Oc1ccnc(S(=O)(=O)CC(=O)Nc2ccccc2)n1
Property Name: CC50 at 96 h
Limit Operator: =
Obs Value: 29.3

Chem Smiles: Cc1cc(C#N)cc(C)c1Oc1ccnc(S(=O)(=O)CC(=O)Nc2cccc(Cl)c2)n1
Property Name: CC50 at 96 h
Limit Operator: =
Obs Value: 25.4

Chem Smiles: Cc1cc(C#N)cc(C)c1Oc1ccnc(S(=O)(=O)CC(=O)Nc2ccc(C#N)cc2)n1
Property Name: CC50 at 96 h
Limit Operator: ≥
Obs Value: 6.01

Chem Smiles: Cc1cc(C#N)cc(C)c1Oc1ccnc(S(=O)(=O)CC(=O)Nc2cccc([N+](=O)[O-])c2)n1
Property Name: CC50 at 96 h
Limit Operator: =
Obs Value: 23.6

Chem Smiles: Cc1cccc(NC(=O)CS(=O)(=O)c2nccc(Oc3c(C)cc(C#N)cc3C)n2)c1
Property Name: CC50 at 96 h
Limit Operator: =
Obs Value: 25.7

Chem Smiles: COc1ccc(NC(=O)CS(=O)(=O)c2nccc(Oc3c(C)cc(C#N)cc3C)n2)cc1
Property Name: CC50 at 96 h
Limit Operator: =
Obs Value: 5.11

Chem Smiles: Cc1cc(C#N)cc(C)c1Oc1ccnc(S(=O)(=O)CC(=O)Nc2ccccc2Cl)n1
Property Name: CC50 at 96 h
Limit Operator: =
Obs Value: 12.5

Chem Smiles: Cc1cc(C#N)cc(C)c1Oc1ccnc(S(=O)(=O)CC(=O)Nc2ccc(F)cc2)n1
Property Name: CC50 at 96 h
Limit Operator: =
Obs Value: 26.1

Chem Smiles: Cc1cc(C#N)cc(C)c1Oc1ccnc(S(=O)(=O)CC(=O)Nc2cc(Cl)cc(Cl)c2)n1
Property Name: CC50 at 96 h
Limit Operator: =
Obs Value: 24

Chem Smiles: Cc1cc(C#N)cc(C)c1Oc1ccnc(S(=O)(=O)CC(=O)Nc2ccc(Cl)cc2Cl)n1
Property Name: CC50 at 96 h
Limit Operator: =
Obs Value: 10.4

Chem Smiles: Cc1cc(C#N)cc(C)c1Oc1ccnc(S(=O)(=O)CC(=O)Nc2ccc(Cl)c(Cl)c2)n1
Property Name: CC50 at 96 h
Limit Operator: =
Obs Value: 11.7

Chem Smiles: Cc1ccc(NC(=O)CS(=O)(=O)c2nccc(Oc3c(C)cc(C#N)cc3C)n2)cc1
Property Name: CC50 at 96 h
Limit Operator: =
Obs Value: 7.49

Chem Smiles: Cc1cc(C#N)cc(C)c1Oc1ccnc(S(=O)(=O)CC(=O)Nc2ccc([N+](=O)[O-])cc2)n1
Property Name: CC50 at 96 h
Limit Operator: =
Obs Value: 59.6

Chem Smiles: Cc1cc(C#N)cc(C)c1Oc1ccnc(S(=O)(=O)CC(=O)Nc2ccc(Br)cc2)n1
Property Name: CC50 at 96 h
Limit Operator: =
Obs Value: 15.6

Chem Smiles: Cc1cc(C#N)cc(C)c1Oc1ccnc(S(=O)(=O)CC(=O)Nc2ccc(Cl)cc2)n1
Property Name: CC50 at 96 h
Limit Operator: =
Obs Value: 16.6

Chem Smiles: Cc1cc(C#N)cc(C)c1Oc1ccnc(SCC(=O)Nc2ccc(C#N)cc2)n1
Property Name: CC50 at 96 h
Limit Operator: >
Obs Value: 301

Chem Smiles: Cc1cc(C#N)cc(C)c1Oc1ccnc(S(=O)(=O)CC(=O)Nc2ccc(C#N)cc2F)n1
Property Name: CC50 at 96 h
Limit Operator: >
Obs Value: 269

Chem Smiles: Cc1cc(C#N)cc(C)c1Oc1ccnc(S(=O)(=O)CC(=O)Nc2ccccc2F)n1
Property Name: CC50 at 96 h
Limit Operator: =
Obs Value: 28.4

Chem Smiles: O=C1Nc2ccc(Cl)cc2[C@@](C#CC2CC2)(C(F)(F)F)O1
Property Name: CC50 at 96 h
Limit Operator: >
Obs Value: 6.34
